assay: yeast display, Sf9 membrane polyspecificity reagent, FACS + sequencing; frameworks hold sequencing errors
measured.quantity: polyreactivity (PSR sort gate)

Use the examples below as a reference point.
QVQLVESGGGLVQAGGSLRLSCAASGSTFDGNAMGWYRQAPGKERELVATINSDDSKNYADSVKGRFTISRDNAKNTVYLQMNSLKPEDTAVYYCAARLYVTPILSYVERYTNDYWGQGTQVTVSS = low polyreactivity
QVQLVESGGCLVQAGGSLRLSCAGSGSIFDGYAMGWYRQAPGKERELVADINNGADTYYADSVKGRFTISRDKAKNTVYLQMNTLKTEDTAVYYCAARYGTDTDIQNVARYDYWGQGTQVTVSS = low polyreactivity
QVQLVESGGGLVQARGSLRLTWAASGRTFGINAMGWYRQAPGKERELVAVISGSGGNTYYADSVKGRFTISRDNAKNTVYLQMNSLKPEDTAVYYFATSYEKFRYDHGYWGQGTQVTVSS = low polyreactivity
QVQLVESGGGLVQAGGSLRLSCAASGNILSPYTMGWYRQAPGKERELVAGISRSGGTTYYADSVKGRFTLSRDNAKTTVYLQINSLKTEDTAVYYCASGLIYGYSGYDSWGQGTQVTVSS = low polyreactivity
QVQLVESGGGLVHAGGSLRLSCAASGSTFVEYVMGWYRQAPGKERELVASIDVGTTSTRYADSVKGRFTISRDNAKNTVYLQMNSLKPEDTAVYYCNADGYYSGYWTNYDYWGQGTQVTVSS = low polyreactivity
QVQLVESGVGLVQAGGRLLLSCAASRSIFTRYTMGWYSQAPGKEWELVATISSRGDGTFYADSVKGRFTISRDNAKNTFYLQMNSLKPEDTAVYYCAARYRRVHSGYGYWGQVTQVTVSS = high polyreactivity
QVQLVESGGGLVQAGGSLRLSCAASGGIFNRNAMGWYRQAPGKERELVAAISSGGGSTYYADSVKGRFTISRDNAKNTVYLQMNSLKPEDTAVYYCARDSYHLYIQPFGYWGQGTQVTVSS = low polyreactivity
QVQLVESGGGLVQAGGSLRLSCAACGSIFPRNAMGWYIQAPGKDRALVASLNSGGSTNYADSVKGRFTISRDNAKYTVYLHMNSLKPEDSAGYYCAAVRPWWRNKPQWPRYDYWGQGTQVTVSS = low polyreactivity
QVQLVESGGGLVQAGGSLRLSCAASGFTFSRYAMGWYRQAPGKERELVAAISYSGGRTYYADSVKGRFTISRDNAKNTVYLQMNSLKPEDTAVYYCNATWQSGHGWGQGTQVTVSS = high polyreactivity
QVQLVESGGGLVQAGGSLRLSCAASGFTFGRYAMGWYRQAPGKERELVAAITRGSGGTYYADSVKGRFTISRDNAKNTVYLQMNSLKPEDTAVYYCATGSRSRGALRYAHFDYWGQGTQVTESS = high polyreactivity

As a next step, examine the sequence that follows.
INPUT: Please report the recorded polyreactivity (PSR sort gate) for QVQLVESGGGLVQAGGSLRLSCAASGITFKYNAMGWYRQAPGKERELVAAISSGGNTYYADSVKGRFTISRDNAKNTVYLQMNSLKPEDTAVYYCAAPSYDTLWHDYWGQGTQVTVSS .
OUTPUT: low polyreactivity
